Data provenance is ChEMBL document CHEMBL1177660.

Field: inhibition. Provide a value for each of the compounds that follow.
measured.target: Proto-oncogene tyrosine-protein kinase Src (Homo sapiens, UniProt P12931)
Sequence (P12931 2-536 limits assumed): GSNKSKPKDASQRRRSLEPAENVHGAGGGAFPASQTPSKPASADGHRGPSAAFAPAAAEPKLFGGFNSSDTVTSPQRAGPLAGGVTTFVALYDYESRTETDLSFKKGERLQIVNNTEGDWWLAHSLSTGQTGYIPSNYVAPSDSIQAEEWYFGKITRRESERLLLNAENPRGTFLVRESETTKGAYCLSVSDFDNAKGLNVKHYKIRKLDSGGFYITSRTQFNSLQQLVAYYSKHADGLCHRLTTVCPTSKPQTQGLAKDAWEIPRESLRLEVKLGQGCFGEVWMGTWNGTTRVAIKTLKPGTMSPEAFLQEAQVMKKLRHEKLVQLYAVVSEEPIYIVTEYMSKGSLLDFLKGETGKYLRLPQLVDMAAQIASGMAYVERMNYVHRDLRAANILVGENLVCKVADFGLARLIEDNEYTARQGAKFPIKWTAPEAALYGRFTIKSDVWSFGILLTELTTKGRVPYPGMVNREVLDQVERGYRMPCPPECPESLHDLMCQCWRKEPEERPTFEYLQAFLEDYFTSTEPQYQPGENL
assay.overview: Inhibition cSRC at 10 uM
Answer with the figure and its unit, nothing else.

Supply inhibition value. Item: COc1ccc(Nc2nc(N3CCNCC3)nc3[nH]cnc23)cc1
90.5%

Supply inhibition value. Item: Cc1cccc(Nc2nc(N3CCNCC3)nc3[nH]cnc23)c1
86.6%

Supply inhibition value. Item: c1ccc(Cn2cnc3c(Nc4ccccc4)nc(N4CCNCC4)nc32)cc1
35.8%

Supply inhibition value. Item: COc1ccc(Nc2nc(N3CCNCC3)nc3c2ncn3Cc2ccccc2)cc1
22.5%

Supply inhibition value. Item: c1ccc(Cn2cnc3c(Nc4ccccc4)nc(N4CCOCC4)nc32)cc1
20.2%

Supply inhibition value. Item: c1ccc(Cn2cnc3c(N4CCOCC4)ncnc32)cc1
0%

Supply inhibition value. Item: c1ccc(Cn2cnc3c(Nc4ccccc4)ncnc32)cc1
13.9%

Supply inhibition value. Item: Brc1ccc(Nc2nc(N3CCOCC3)nc3c2ncn3Cc2ccccc2)cc1
10.1%

Supply inhibition value. Item: c1ccc(Cn2cnc3c(N4CCOCC4)nc(N4CCOCC4)nc32)cc1
16.4%

Supply inhibition value. Item: Brc1ccc(Nc2ncnc3c2ncn3Cc2ccccc2)cc1
6.9%

Supply inhibition value. Item: COc1ccc(Nc2nc(N3CCOCC3)nc3c2ncn3Cc2ccccc2)cc1
16%
